Notes on Ki obtained with 5-hydroxytryptamine receptor 7 (Homo sapiens).
Sequence (P34969 whole entry): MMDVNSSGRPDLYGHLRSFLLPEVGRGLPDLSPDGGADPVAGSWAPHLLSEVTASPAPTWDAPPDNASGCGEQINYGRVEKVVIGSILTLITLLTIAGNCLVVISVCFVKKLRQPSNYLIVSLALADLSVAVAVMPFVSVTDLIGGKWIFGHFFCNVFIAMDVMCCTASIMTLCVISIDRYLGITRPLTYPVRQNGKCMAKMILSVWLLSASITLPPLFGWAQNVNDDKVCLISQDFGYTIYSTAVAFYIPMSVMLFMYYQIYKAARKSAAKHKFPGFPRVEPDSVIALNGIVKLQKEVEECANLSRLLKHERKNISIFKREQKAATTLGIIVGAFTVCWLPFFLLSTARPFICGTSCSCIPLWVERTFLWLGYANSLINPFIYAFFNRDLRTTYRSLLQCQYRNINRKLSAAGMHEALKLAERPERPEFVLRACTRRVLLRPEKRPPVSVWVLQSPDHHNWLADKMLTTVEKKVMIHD

>  <Structure notation>
O=C(CCN1CCN(c2cccc(Cl)c2)CC1)N1CCN(c2cccc(Cl)c2)CC1

>  <Unit descriptor>
nM

>  <Ki>
2760

$$$$
>  <Structure notation>
O=C(CCN1CCN(Cc2ccccc2)CC1)N1CCN(c2ccccn2)CC1

>  <Unit descriptor>
nM

>  <Ki>
29.5

$$$$
>  <Structure notation>
COc1ccccc1N1CCN(C(=O)CCN2CCN(Cc3ccccc3)CC2)CC1

>  <Unit descriptor>
nM

>  <Ki>
24.2

$$$$
>  <Structure notation>
O=C(CCN1CCN(c2ccccc2)CC1)N1CCN(c2ccccc2)CC1

>  <Unit descriptor>
nM

>  <Ki>
26.2

$$$$
>  <Structure notation>
O=C(CCN1CCN(c2ccc(Cl)cc2)CC1)N1CCN(c2cccc(Cl)c2)CC1

>  <Unit descriptor>
nM

>  <Ki>
2370

$$$$
>  <Structure notation>
O=C(CCN1CCN(Cc2ccccc2)CC1)N1CCN(c2cccc(Cl)c2)CC1

>  <Unit descriptor>
nM

>  <Ki>
54.7

$$$$
>  <Structure notation>
O=C(CCN1CCN(Cc2ccccc2)CC1)N1CCN(c2ccc(Cl)cc2)CC1

>  <Unit descriptor>
nM

>  <Ki>
36.6

$$$$
>  <Structure notation>
CCOc1ccccc1N1CCN(CCC(=O)N2CCN(c3cccc(Cl)c3)CC2)CC1

>  <Unit descriptor>
nM

>  <Ki>
119

$$$$
>  <Structure notation>
O=C(CCN1CCN(c2ccc(Cl)cc2)CC1)N1CCN(c2ccccc2)CC1

>  <Unit descriptor>
nM

>  <Ki>
462

$$$$
>  <Structure notation>
O=C(CCCCN1CCN(c2ccccc2)CC1)N1CCN(c2ccccc2)CC1

>  <Unit descriptor>
nM

>  <Ki>
197

$$$$
>  <Structure notation>
O=C(CCN1CCN(Cc2ccccc2)CC1)NCc1ccccc1

>  <Unit descriptor>
nM

>  <Ki>
4.34

$$$$
>  <Structure notation>
O=C(CCN1CCN(Cc2ccccc2)CC1)N1CCN(c2ncccn2)CC1

>  <Unit descriptor>
nM

>  <Ki>
23.5

$$$$

* * *

Items are presented alongside their recorded pKa.
- Protocol notes: Dissociation constant, pKa of the compound at pH 7.4
- Format: physicochemical
Measure: pKa

>  <Structure notation>
O=C(CCN1CCN(Cc2ccccc2)CC1)N1CCN(c2ccccc2)CC1

>  <Value>
8.55

$$$$
>  <Structure notation>
O=C(CCN1CCN(c2ccccc2)CC1)N1CCN(c2ccccc2)CC1

>  <Value>
8.11

$$$$

* * *

- Tested system: 5-hydroxytryptamine receptor 1A (Homo sapiens)
- Sequence (P08908 whole entry): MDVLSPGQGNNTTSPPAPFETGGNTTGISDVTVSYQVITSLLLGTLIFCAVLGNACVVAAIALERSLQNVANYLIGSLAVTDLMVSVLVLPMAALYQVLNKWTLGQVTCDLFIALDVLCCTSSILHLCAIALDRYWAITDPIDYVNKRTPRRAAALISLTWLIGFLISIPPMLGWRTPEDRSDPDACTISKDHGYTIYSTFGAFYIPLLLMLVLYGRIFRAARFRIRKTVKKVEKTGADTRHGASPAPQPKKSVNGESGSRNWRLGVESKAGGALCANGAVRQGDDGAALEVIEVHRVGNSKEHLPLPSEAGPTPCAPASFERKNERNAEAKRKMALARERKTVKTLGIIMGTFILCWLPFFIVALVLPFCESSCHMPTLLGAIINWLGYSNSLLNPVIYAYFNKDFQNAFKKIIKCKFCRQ
- Protocol notes: Displacement of [3H]-8-OH-DPAT from human 5-HT1A receptor expressed in CHOK1 cell membranes after 30 mins by liquid scintillation spectrometry
pKi: −log10 of the molar value.
Items are presented alongside their recorded pKi.
Measure: pKi

>  <Structure notation>
O=C(CCN1CCN(c2ccccc2)CC1)N1CCN(c2cccc(Cl)c2)CC1

>  <Tested system>
5-hydroxytryptamine receptor 1A (Homo sapiens)

>  <Measure>
pKi

>  <Value>
5.97

$$$$
>  <Structure notation>
O=C(CCCCN1CCN(c2ccccc2)CC1)N1CCN(c2ccccc2)CC1

>  <Tested system>
5-hydroxytryptamine receptor 1A (Homo sapiens)

>  <Measure>
pKi

>  <Value>
6.46

$$$$
>  <Structure notation>
O=C(CCN1CCN(c2cccc(Cl)c2)CC1)N1CCN(c2ccccc2)CC1

>  <Tested system>
5-hydroxytryptamine receptor 1A (Homo sapiens)

>  <Measure>
pKi

>  <Value>
7.47

$$$$
>  <Structure notation>
O=C(CCN1CCN(Cc2ccccc2)CC1)NCc1ccccc1

>  <Tested system>
5-hydroxytryptamine receptor 1A (Homo sapiens)

>  <Measure>
pKi

>  <Value>
9.47

$$$$
>  <Structure notation>
O=C(CCN1CCN(Cc2ccccc2)CC1)N1CCN(c2cccc(Cl)c2)CC1

>  <Tested system>
5-hydroxytryptamine receptor 1A (Homo sapiens)

>  <Measure>
pKi

>  <Value>
7.00

$$$$
>  <Structure notation>
O=C(CCN1CCN(c2cccc(Cl)c2)CC1)N1CCN(c2cccc(Cl)c2)CC1

>  <Tested system>
5-hydroxytryptamine receptor 1A (Homo sapiens)

>  <Measure>
pKi

>  <Value>
6.85

$$$$
>  <Structure notation>
O=C(CCN1CCN(c2ccc(Cl)cc2)CC1)N1CCN(c2ccccc2)CC1

>  <Tested system>
5-hydroxytryptamine receptor 1A (Homo sapiens)

>  <Measure>
pKi

>  <Value>
5.77

$$$$
>  <Structure notation>
CCOc1ccccc1N1CCN(CCC(=O)N2CCN(c3ccccc3)CC2)CC1

>  <Tested system>
5-hydroxytryptamine receptor 1A (Homo sapiens)

>  <Measure>
pKi

>  <Value>
7.09

$$$$
